This collection of values is drawn from patent US8377923B2.

Entries and their IC50 values follow.
Molecular target: human recombinant 11β-HSD2 (Homo sapiens, UniProt P80365)
Sequence (P80365 1-405): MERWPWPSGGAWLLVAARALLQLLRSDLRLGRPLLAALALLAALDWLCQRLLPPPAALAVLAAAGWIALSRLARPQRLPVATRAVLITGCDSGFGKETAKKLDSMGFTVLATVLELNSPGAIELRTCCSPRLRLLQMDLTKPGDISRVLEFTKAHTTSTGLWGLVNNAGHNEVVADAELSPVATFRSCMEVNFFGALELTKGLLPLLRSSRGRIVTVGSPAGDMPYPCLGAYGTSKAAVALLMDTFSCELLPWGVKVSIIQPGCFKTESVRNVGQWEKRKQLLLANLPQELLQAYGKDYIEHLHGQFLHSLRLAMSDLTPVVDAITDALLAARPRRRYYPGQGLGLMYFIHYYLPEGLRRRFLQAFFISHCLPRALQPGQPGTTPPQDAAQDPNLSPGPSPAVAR
Test: Measuring test for human 11β-HSD2 inhibitory activity (HTRF cortisol detection)
Assay type: biochemical
Conditions: human recombinant 11β-HSD2, 200 nM cortisol, 200 μM NAD, pH 8.0, 37° C. 2 h
Structures can show the parent of a compound that is named as a salt.

These recorded examples may help you get a feel for the data.
[
  {
    "compound": "Cn1c(-c2cc(Cl)ccc2Cl)nnc1C(C)(C)Oc1c(F)cc(F)cc1F",
    "IC50": "> 30 µM"
  },
  {
    "compound": "CCn1c(-c2ccc3c(c2)CNC3=O)nnc1C(C)(C)Oc1c(F)cc(F)cc1F",
    "IC50": "> 3 µM"
  },
  {
    "compound": "Cn1c(-c2ccccc2C(F)(F)F)nnc1C(C)(C)Oc1ccc(Cl)cc1 [Example 64, monohydrochloride]",
    "IC50": "> 3 µM"
  }
]

According to the records, this compound `Cn1c(-c2ccncc2C(F)(F)F)nnc1C(C)(C)Oc1c(F)cc(Cl)cc1F` displays IC50 of > 10 µM

---

Molecular target: human recombinant 11β-HSD1 (Homo sapiens)
Construct: made in house
Sequence (P28845 whole entry): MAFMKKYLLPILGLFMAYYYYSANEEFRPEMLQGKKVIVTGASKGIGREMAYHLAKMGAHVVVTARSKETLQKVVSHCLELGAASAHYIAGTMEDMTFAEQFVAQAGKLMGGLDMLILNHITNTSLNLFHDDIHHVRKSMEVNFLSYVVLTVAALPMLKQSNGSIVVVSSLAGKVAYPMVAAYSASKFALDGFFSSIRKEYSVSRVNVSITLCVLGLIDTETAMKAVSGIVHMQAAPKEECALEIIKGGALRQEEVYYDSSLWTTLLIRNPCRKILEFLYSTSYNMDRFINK
Assay: Measuring test for human 11β-HSD1 inhibitory activity (HTRF cortisol detection)
Assay type: biochemical
Settings: human recombinant 11β-HSD1, 200 nM cortisone, 40 μM NADPH, pH 6.6, room temperature 1 h
Counter-ions that a name gives are not always drawn.
Decide using IC50 alone. Strictly below 0.01 µM: 1 (yes). Equal to or above 0.01 µM: 0 (no).

The following compounds have reported results that may help.
[
  {
    "compound": "Cn1c(-c2ccc(F)c3ccccc23)nnc1C(C)(C)Oc1c(F)cc(F)cc1F [Example 373]",
    "classification": "0 (no)"
  },
  {
    "compound": "Cn1c(-c2ccncc2C(F)(F)F)nnc1C(C)(C)Oc1c(F)cc(Cl)cc1F [Example 544]",
    "classification": "0 (no)"
  },
  {
    "compound": "Cn1c(-c2ccccc2C(F)(F)F)nnc1C(C)(C)Oc1ccc(Cl)cc1 [Example 64, monohydrochloride]",
    "classification": "1 (yes)"
  },
  {
    "compound": "Cn1c(-c2ccc(C(N)=O)cc2F)nnc1C(C)(C)Oc1c(F)cc(Cl)cc1F [Example 186]",
    "classification": "1 (yes)"
  },
  {
    "compound": "Cn1c(-c2ccc(C(N)=O)cc2Cl)nnc1C(C)(C)Oc1c(F)cc(F)cc1F [Example 175]",
    "classification": "1 (yes)"
  }
]

Prompt: Determine if Cn1c(-c2cc(Cl)ccc2Cl)nnc1C(C)(C)Oc1c(F)cc(F)cc1F [Example 374] shows IC50 strictly lower than 0.01 µM.
Completion: 0 (no)

Prompt: Item Cn1c(-c2ccc(C(N)=O)cc2Cl)nnc1C(C)(C)Oc1c(F)cc(Cl)cc1F [Example 185] : IC50 beneath 0.01 µM, strictly?
Completion: 1 (yes)

Prompt: Item C[C@H](Oc1ccc(C(N)=O)cc1Br)c1nnc(-c2ccccc2C(F)(F)F)n1C [Example 127] : IC50 beneath 0.01 µM, strictly?
Completion: 1 (yes)

Prompt: Determine if Cn1c(-c2sc(N)nc2C(F)(F)F)nnc1C(C)(C)Oc1c(F)cc(Cl)cc1F [Example 587] shows IC50 strictly lower than 0.01 µM.
Completion: 0 (no)

Prompt: Strictly below 0.01 µM: is that where IC50 of CC(C)(Oc1cc(F)c(F)cc1F)c1nnc(-c2ccc(C(N)=O)cc2F)n1C1CC1 [Example 525] sits?
Completion: 0 (no)

Prompt: Please check: IC50 for Cn1c(-c2ccc(F)cc2Br)nnc1C(C)(C)Oc1ccc(Cl)cc1 [Example 215] , strictly under 0.01 µM or not?
Completion: 0 (no)
